The values you see were collected from ChEMBL document CHEMBL1128452.

In this section, each of the compounds is paired with its reported IC50.
- TESTED TARGET: Protein farnesyltransferase (Bos taurus, UniProt P29702+P49355)
- PROCEDURE DETAILS: In vitro concentration required to reduce Farnesyltransferase catalyzed incorporation of [3H]FPP into recombinant Ha-Ras protein by 50%
Peptide text beside a SMILES is read from it. * marks the point of attachment. NHPhenethyl = c1ccc(CCN*)cc1

COMPOUND	UNITS LABEL	READOUT QUALIFIER	IC50
CCC(C)[C@H](NC[C@@H](N)CS)C(=O)NC(CO)Cc1ccccc1 (stereo not given in full)	nM	=	370
C[C@H](NC[C@@H](N)CS)C(=O)NCc1ccccc1	nM	=	2000
CC[C@H](NC[C@@H](N)CS)C(=O)NCc1ccccc1	nM	=	1100
CCC(C)[C@H](NC[C@@H](N)CS)C(=O)NCCCc1ccccc1 (stereo not given in full)	nM	=	350
CC[C@H](C)[C@H](NC(=O)[C@@H](N)CS)C(=O)NCCc1ccccc1 (H-Cys-Ile-NHPhenethyl)	nM	=	1000
CCC(C)[C@H](NC[C@@H](N)CS)C(=O)NCc1ccc(OC)cc1 (stereo not given in full)	nM	=	660
CCCCN(Cc1ccccc1)C(=O)[C@@H](NC[C@@H](N)CS)C(C)CC (stereo not given in full)	nM	=	1300
CCC(C)[C@H](NC[C@@H](N)CS)C(=O)Nc1ccc(C)cc1C (stereo not given in full)	nM	=	60
CCC(C)[C@H](NC[C@@H](N)CS)C(=O)NCc1ccc(S(N)(=O)=O)cc1 (stereo not given in full)	nM	=	400
CCC(C)[C@H](NC[C@H](C)N)C(=O)NCCc1ccccc1 (stereo not given in full)	nM	>	10000

----------
- TESTED TARGET: Geranylgeranyl transferase type I (Bos taurus, UniProt P29702+Q5EAD5)
- PROCEDURE DETAILS: Inhibition of bovine Geranylgeranyl transferase type I
pIC50: −log10 of the molar value.
Param threshold (5) applies to pIC50; output Y when value >= threshold, N when value < threshold.

MOLECULE	ASSIGNED LABEL
CCC(C)[C@H](NC[C@@H](N)CS)C(=O)NCCC(C)C (stereo partly drawn)	N
CCC(C)[C@H](NC[C@@H](N)CS)C(=O)NCc1ccc(C)cc1C (stereo partly drawn)	N
CCC(C)[C@H](NC[C@@H](N)CS)C(=O)NCc1cccc(Cl)c1Cl (stereo partly drawn)	Y
CCC(C)[C@H](NC[C@@H](N)CS)C(=O)NCc1ccccc1 (stereo partly drawn)	N
CCC(C)[C@H](NC[C@@H](N)CS)C(=O)Nc1cccc(C)c1 (stereo partly drawn)	Y
CCC(C)[C@H](NC[C@@H](N)CS)C(=O)NCc1ccc(S(N)(=O)=O)cc1 (stereo partly drawn)	N

----------
In this section, each of the compounds is paired with its reported IC50.
- TESTED TARGET: Protein farnesyltransferase (Bos taurus, UniProt P29702+P49355)
- PROCEDURE DETAILS: In vitro concentration required to reduce Farnesyltransferase catalyzed incorporation of [3H]FPP into recombinant Ha-Ras protein by 50%
QUANTITY NAME: IC50 (nM)

COMPOUND	READOUT QUALIFIER	ENDPOINT VALUE
CCC(C)[C@H](NC[C@@H](N)CS)C(=O)NCc1cccc(C)c1 (some centres undefined)	=	1000
CCC(C)[C@H](NC[C@@H](N)CS)C(=O)NCc1ccccc1 (some centres undefined)	=	450
CCC(C)[C@H](NC(=O)CCS)C(=O)NCCc1ccccc1 (some centres undefined)	>	10000
CCCC[C@H](NC[C@@H](N)CS)C(=O)NCc1ccccc1	=	900
CCC[C@H](NC[C@@H](N)CS)C(=O)NCc1ccccc1	=	600
CCC(C)[C@H](NC[C@@H](N)CS)C(=O)Nc1ccccc1 (some centres undefined)	=	70
CCC(C)[C@H](NC[C@@H](N)CS)C(=O)Nc1cccc(C)c1 (some centres undefined)	=	46
CCC(C)[C@H](NC[C@@H](N)CS)C(=O)NCc1ccc(C)cc1C (some centres undefined)	=	120
CCC(C)[C@H](NC[C@@H](N)CS)C(=O)NCc1cccc(Cl)c1Cl (some centres undefined)	=	23
CCC(C)[C@H](NC[C@@H](N)CS)C(=O)NCCc1ccccc1 (some centres undefined)	=	707
CCC(C)[C@H](NC[C@@H](N)CS)C(=O)NCc1ccc(Cl)cc1Cl (some centres undefined)	=	97
CCC(C)[C@H](NC[C@@H](N)CS)C(=O)Nc1cccc(C)c1C (some centres undefined)	=	40
CCC(C)[C@@H](CNCCc1ccccc1)NC(=O)[C@@H](N)CS (some centres undefined)	=	9000
CCC(C)[C@H](NC[C@@H](N)CS)C(=O)N(C)Cc1ccccc1 (some centres undefined)	=	945
